Ki for assorted binders
- target-or-system: T1, Mouse MMP-9 (R&D, 909-MM), APMA-activated (mouse, UniProt P41245 108-730, limits assumed)
- T1 construct: also called mMMP-9; mouse MMP-9 (R&D Systems #909-MM-010)
- T1 sequence (P41245 108-730 limits assumed): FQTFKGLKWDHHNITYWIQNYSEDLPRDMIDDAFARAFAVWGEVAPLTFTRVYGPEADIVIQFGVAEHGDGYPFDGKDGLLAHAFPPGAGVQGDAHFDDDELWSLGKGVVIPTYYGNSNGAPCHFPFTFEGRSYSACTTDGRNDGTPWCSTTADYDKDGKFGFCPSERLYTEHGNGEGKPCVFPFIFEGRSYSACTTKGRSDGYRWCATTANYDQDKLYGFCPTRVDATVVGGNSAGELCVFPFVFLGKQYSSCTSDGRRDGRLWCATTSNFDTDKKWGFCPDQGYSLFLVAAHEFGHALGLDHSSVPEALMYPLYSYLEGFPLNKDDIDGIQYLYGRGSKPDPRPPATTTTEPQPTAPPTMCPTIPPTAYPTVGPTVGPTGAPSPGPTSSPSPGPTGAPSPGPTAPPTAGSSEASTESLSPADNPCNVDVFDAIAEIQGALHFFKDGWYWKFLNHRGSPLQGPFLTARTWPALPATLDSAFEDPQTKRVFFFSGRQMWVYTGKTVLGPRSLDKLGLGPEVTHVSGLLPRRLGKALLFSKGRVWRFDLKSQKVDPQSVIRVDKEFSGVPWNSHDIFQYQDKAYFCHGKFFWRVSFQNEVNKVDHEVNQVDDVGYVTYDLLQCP
- assay-remarks: Ki,app, enzyme inhibition assay (fluorogenic peptide substrate), IgG
The answer is to be given in nM; state only the numeric part.

1. X0106-B02 (antibody, V domains shown, Produced and tested as IgG1; germlined, optimized version of M0276-F11) VH: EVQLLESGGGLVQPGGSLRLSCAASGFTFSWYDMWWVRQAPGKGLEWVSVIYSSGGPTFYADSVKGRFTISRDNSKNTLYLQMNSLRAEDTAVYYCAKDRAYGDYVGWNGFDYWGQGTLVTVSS VL: EIVLTQSPATLSLSPGERATLSCRASQSISSFLAWYQQKPGQAPRLLIYDASYRATGIPARFSGSGSGTDFTLTISSLEPEDFAVYYCQQRGNWPITFGQGTRLEIK; 0.24
2. X0106-A01 (antibody, V domains shown, Produced and tested as IgG1; germlined, optimized version of M0256-D11; also called X106-A01; X106-A01 IgG) VH: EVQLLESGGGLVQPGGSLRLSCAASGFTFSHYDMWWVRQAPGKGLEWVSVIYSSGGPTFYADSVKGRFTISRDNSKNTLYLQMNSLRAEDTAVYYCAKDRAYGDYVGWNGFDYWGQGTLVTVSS VL: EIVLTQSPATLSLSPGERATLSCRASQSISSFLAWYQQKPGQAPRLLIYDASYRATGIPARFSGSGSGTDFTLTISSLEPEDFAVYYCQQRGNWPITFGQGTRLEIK; 0.25
3. X0106-E04 (antibody, V domains shown, Produced and tested as IgG1; germlined, optimized version of M0275-D03; also called X0106-E4) VH: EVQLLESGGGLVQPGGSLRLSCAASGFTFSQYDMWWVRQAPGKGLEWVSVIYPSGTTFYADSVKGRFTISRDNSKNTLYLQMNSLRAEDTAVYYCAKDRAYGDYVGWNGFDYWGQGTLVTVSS VL: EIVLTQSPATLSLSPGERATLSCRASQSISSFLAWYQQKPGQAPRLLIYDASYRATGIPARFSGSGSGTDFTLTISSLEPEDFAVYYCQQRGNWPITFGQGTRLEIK; 0.23
4. X0106-F05 (antibody, V domains shown, Produced and tested as IgG1; germlined, optimized version of M0307-F04) VH: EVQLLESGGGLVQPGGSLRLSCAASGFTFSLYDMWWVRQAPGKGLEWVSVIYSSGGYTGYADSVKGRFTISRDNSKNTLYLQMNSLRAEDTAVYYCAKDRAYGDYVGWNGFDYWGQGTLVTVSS VL: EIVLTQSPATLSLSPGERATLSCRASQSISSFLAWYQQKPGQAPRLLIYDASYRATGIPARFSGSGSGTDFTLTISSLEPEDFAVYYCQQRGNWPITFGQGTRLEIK; 0.1

Lab note: next binder to report on.
Record X0106-C03 (antibody, V domains shown, Produced and tested as IgG1; germlined, optimized version of M0274-G08; printed as X0106-C04 in some sentences; also called X0106-C04) VH: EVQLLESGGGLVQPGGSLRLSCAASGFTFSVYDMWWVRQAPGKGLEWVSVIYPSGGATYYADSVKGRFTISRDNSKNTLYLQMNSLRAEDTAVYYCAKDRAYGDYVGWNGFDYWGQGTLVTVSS VL: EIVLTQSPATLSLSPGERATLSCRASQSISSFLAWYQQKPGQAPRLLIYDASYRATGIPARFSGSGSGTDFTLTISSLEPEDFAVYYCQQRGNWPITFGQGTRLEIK , field Ki: 0.22
